Value source: the supplement of paper PMC9170038

Entries annotated with measured apparent KD of MS2 coat protein
system: MS2 coat protein; assay: apparent KD of MS2 coat protein; designed switch direction (-1 OFF switch, 1 ON switch): 1; higher = weaker reporter binding; settings: Eterna round: R95; input ligand: FMN 200 uM
Supply the numeric figure in nM, leaving out any unit text.

Completed entries (count: 6):
GAGAGAGGAAGCGAGGAUAUCGUGUGGAGUACAUGAGGAUCACCCAUGUUGUAGGUAGAGGUAGGCGAGAAGGCGCAGGAGAGGU [JR_SS2_Sub097] (puzzle: Same State 2) | 34
UAGUUACUAUCUCAGGAUAUCAUGUCAAAGACAUGAGGAUCACCCAUGUACCAGGAAACUGGUUAUGAGAAGGGAGAUAGUAACU [Mat - Same State 2 - Mod - D55] (puzzle: Same State 2) | 134
UGGAUCUAGGCUUGCCUGGGUCCAUGUUGACAUGAGGAUCACCCAUGUGUAUUUUUUAAGCUUUUUGUUUGUCAACA [JL A Humble Attempt mod 6] (puzzle: Sensor for hsa-mir-208a) | 42.4
UACUAUCUAUCUCAGGAUAUCAUGUCAAAGACAUGAGGAUCACCCAUGUACCAGGAAACUGGUUAUGAGAAGGGAGAUAGAUAGU [Mat - Same State 2 - Mod - D40] (puzzle: Same State 2) | 160
AGUCCUGCCUGAGCAGGACAAAAGCAUGUACAUGAGGAUCACCCAUGUCAUGUACAAGCUUUUUGCUCGUCUUAAUA [Mat - hsa-mir-208a - Mod of JL - D41] (puzzle: Sensor for hsa-mir-208a) | 556
GGAGCCGGUACUGAGGAUAUUCAUAUUAAAACAUGAGGAUCACCCAUGUAGGCCAGAAGGCCUUGGGAGAAGGCAGGCCAGCUCG [Atgexeedri - 4] (puzzle: Same State 2) | 20.2

# apparent KD of MS2 coat protein measured on MS2 coat protein for item GGUCCAGCCUGAGCUGGACGAAAGUAUGUACAUGAGGAUCACCCAUGUCAUGUAUAAGUUUUUUGUUUGUCUUGAAA [Sensorship 2 - Jieux - Sensor for hsa-mir-208a] (puzzle: Sensor for hsa-mir-208a) = 22.4
